tested on: Sonic hedgehog protein (Shh); assay: small-molecule binders of Shh protein, primary screen, biochemical, small-molecule microarray, 635/667 nm fluorescence (AID 1151); settings: small-molecule microarray binding, 635 nm fluorescence; higher = more signal;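 note: Shh protein binding to compounds spotted on small-molecule microarray slides; score combines spot fluorescence intensity with signal-to-noise across triplicate slides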
Note to self: values exactly at 0.3 are satisfied. So composite z-score at or above 0.3 is satisfied, below is not satisfied.

{"smiles_input": "C=C(/C(=C/C[C@H](OC(C)=O)c1cccc(OCCO)c1)c1cc(C(=O)OC)ccc1OC)C(C)C", "measurement_target": "Sonic hedgehog protein (Shh)", "class_assignment": "not satisfied"}
{"smiles_input": "C=CCNC(=O)[C@@H]1[C@H]2C(=O)O[C@H](c3ccccc3)[C@H](c3ccccc3)N2[C@H](c2ccc(O)cc2)[C@@]12C(=O)N(C(=O)OCCOC)c1ccc(C#Cc3ccc(OC)cc3)cc12", "measurement_target": "Sonic hedgehog protein (Shh)", "class_assignment": "satisfied"}
{"smiles_input": "COCCOC(=O)N1C(=O)[C@@]2(c3cc(C#CCNC(N)=O)ccc31)[C@H](c1ccccc1OCCO)N1[C@H](c3ccccc3)[C@H](c3ccccc3)OC(=O)[C@H]1[C@@H]2C(=O)Nc1nc2ccccc2s1", "measurement_target": "Sonic hedgehog protein (Shh)", "class_assignment": "satisfied"}
{"smiles_input": "COc1ccc([Si](C)(C)[C@@H]2[C@@H](CC(=O)N3CCC[C@H]3CO)O[C@]3(C(=O)N(Cc4ccc(N5CCC5=O)cc4)c4ccccc43)[C@H]2C)cc1", "measurement_target": "Sonic hedgehog protein (Shh)", "class_assignment": "satisfied"}
{"smiles_input": "COC(=O)C(CC#Cc1ccc2c(c1)[C@]1(C(=O)N2)[C@H](c2ccccc2OCCO)N2[C@H](c3ccccc3)[C@H](c3ccccc3)OC(=O)[C@H]2[C@@H]1C(=O)N1CCCCCCC1)C(=O)OC", "measurement_target": "Sonic hedgehog protein (Shh)", "class_assignment": "satisfied"}
{"smiles_input": "CC(C)(C)OC(=O)CC[C@]1(C(=O)NCc2ccccc2)N=C(c2ccc(OCCCO)cc2)O[C@H]1c1ccccc1N=[N+]=[N-]", "measurement_target": "Sonic hedgehog protein (Shh)", "class_assignment": "satisfied"}

====

test: cytotoxicity in OVCAR8 ovarian cancer cells, dose response, PAX8 project, cell-based, plate reader, dry powder samples (AID 743197); conditions: series mostly up to 35 µM
Measured potencies and affinities stand elsewhere. Active and inactive are the calls of the source. The rule behind the calls is not given here.

{"compound": "CC=Cc1ccc2n(c1=O)C[C@H]1[C@H](CO)[C@@H](C(=O)NC3CCC3)N(CC)[C@@H]21 (mixture of isomers)", "outcome": "inactive"}
{"compound": "CC(C)CC#Cc1ccc2c(c1)O[C@@H](CN(C)Cc1ccncc1)[C@H](C)CN([C@@H](C)CO)S2(=O)=O", "outcome": "inactive"}
{"compound": "COc1cccc(S(=O)(=O)N2CC[C@H]3[C@@H](CO)N(C)c4ccc(C#Cc5ccc(F)cc5)cc4[C@H]32)c1", "outcome": "inactive"}
{"compound": "COc1ccc(S(=O)(=O)Nc2ccc3c(c2)C(=O)N([C@H](C)CO)C[C@H](C)[C@@H](CN(C)Cc2ccc(C(F)(F)F)cc2)OCCCC[C@H](C)O3)cc1", "outcome": "inactive"}
{"compound": "O=C(Nc1ccc(F)cc1)N1CCCCN2[C@@H](CO)[C@@H](c3ccc(-c4cccc(F)c4)cc3)[C@@H]2C1", "outcome": "inactive"}
{"compound": "N#C[C@H]1[C@H](c2ccc(C#Cc3ccccc3F)cc2)[C@H](CO)N1C(=O)C1CCC1", "outcome": "inactive"}
{"compound": "C[C@@H]1CCCCO[C@H](CN(C)C(=O)NC2CCCCC2)[C@H](C)CN([C@@H](C)CO)C(=O)c2cc(NS(=O)(=O)c3ccc(Cl)cc3)ccc2O1", "outcome": "inactive"}
{"compound": "N#C[C@@H]1[C@H](c2ccc(C#CC3CCCCC3)cc2)[C@H](CO)N1S(=O)(=O)c1ccccc1", "outcome": "inactive"}
{"compound": "C[C@@H]1CCCCO[C@@H](CN(C)C(=O)Cc2ccccc2)[C@@H](C)CN([C@@H](C)CO)C(=O)c2cc(NC(=O)Nc3ccc(C(F)(F)F)cc3)ccc2O1", "outcome": "inactive"}
{"compound": "COCC(=O)N1CCCCN2[C@H](C1)[C@@H](c1ccc(-c3ccc(C)cc3)cc1)[C@@H]2CO", "outcome": "inactive"}
{"compound": "CNC[C@@H]1Oc2cc(C#CC3CCCCC3)ccc2S(=O)(=O)N([C@@H](C)CO)C[C@@H]1C", "outcome": "inactive"}
{"compound": "O=C(Nc1ccc(F)cc1)N1CCCCN2[C@@H](CO)[C@@H](c3ccc(C#Cc4ccccc4)cc3)[C@@H]2C1", "outcome": "inactive"}
{"compound": "C[C@@H]1CCCCO[C@H](CN(C)Cc2ccc(C(F)(F)F)cc2)[C@H](C)CN([C@H](C)CO)C(=O)c2cc(NC(=O)Nc3ccc(F)cc3)ccc2O1", "outcome": "inactive"}
{"compound": "C[C@H](CO)N1C[C@H](C)[C@H](CN(C)Cc2ccc3c(c2)OCO3)OCCCC[C@H](C)Oc2ccc(NS(=O)(=O)c3ccc(Cl)cc3)cc2C1=O", "outcome": "inactive"}

====

molecular target: Luciferin 4-monooxygenase (Photinus pyralis); assay: firefly luciferase enzyme inhibitors, primary screen, biochemical, luminescence, purified enzyme, 2006 set (AID 1141); conditions: SteadyGlo luminescence, 30 min, higher = more signal, called active from +8 up or from −8 down;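 note: cell-free assay with purified firefly luciferase at 100 ng per well in PBS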

{"compound": "COCCOC(=O)N1C(=O)[C@@]2(c3cc(C#CC4(O)CCCCCC4)ccc31)[C@H](c1ccccc1OCCO)N1[C@H](c3ccccc3)[C@H](c3ccccc3)OC(=O)[C@H]1[C@@H]2C(=O)Nc1nc2ccccc2s1", "z-score": -2.53}
{"compound": "C=C(COC)C(=O)CC[C@H](OC(=O)c1cccnc1)c1cccc(OCCO)c1", "z-score": -2.13}
{"compound": "O=C1O[C@@H](c2ccccc2)[C@@H](c2ccccc2)N2[C@@H](c3ccc(OCCO)cc3)[C@]3(C(=O)Nc4ccc(C#CC5(O)CCCCCC5)cc43)[C@@H](C(=O)NC[C@H](O)c3ccccc3)[C@H]12", "z-score": -1.77}
{"compound": "C=C(CCCC)/C(=C/C[C@@H](OC(=O)c1ccncc1)c1ccc(OCCO)cc1)c1cnc2ccccc2c1", "z-score": -2.3}
{"compound": "COc1ccc(C(=O)Nc2cccc(CN3C(=O)[C@@]4(O[C@@H](CCO)[C@H]([Si](C)(C)c5ccc(OC)cc5)[C@H]4C)c4ccccc43)c2)cc1", "z-score": -1.96}
{"compound": "NC(=O)N1C(=O)C2C(C1=O)C1C=C(c3ccc(CO)cc3)C2C(C2CC2)N1Cc1cc2c(cc1Br)OCO2 (stereo unspecified)", "z-score": -2.17}

====

experiment: PSAC antagonists in infected red cells, primary screen, cell-based, P. falciparum Indochina, OD700, 1 h (AID 1154); details: P. falciparum Indochina infected RBC osmotic lysis, higher = more signal, called active from +8 up or from −8 down
Activity calls are given as the source filed them.
experimental_readout: z-score

{"smiles_input": "CCCCC(=C=CC[C@@H](O)c1ccc(OCCO)cc1)C[C@@H](O)c1cc(Cl)cc(Cl)c1O", "result": "20.3 (active)"}
{"smiles_input": "CC(C)(C)OC(=O)CC[C@]1(C(=O)NCc2ccccc2)N=C(c2ccc(OCCCO)cc2)O[C@H]1c1ccccc1N=[N+]=[N-]", "result": "30.9 (active)"}
{"smiles_input": "C=C(C(=O)CC[C@H](OC(C)=O)c1ccc(CO)o1)C(C)C", "result": "1.55 (inactive)"}
{"smiles_input": "Cc1ccc(S[C@]2(C(=O)NCCN3CCOCC3)CC(=O)N(Cc3cc(C(F)(F)F)cc(C(F)(F)F)c3)[C@@H]2c2ccc(CO)cc2)cc1", "result": "1.69 (inactive)"}
{"smiles_input": "CO[C@H]1O[C@H](CO)[C@@H](OC(=O)Nc2ccccc2)[C@H](OC(=O)Nc2ccc3c(c2)OCO3)[C@H]1OC(=O)Nc1ccc2c(c1)OCO2", "result": "4.45 (inactive)"}
{"smiles_input": "CC(C)[C@@H](C(=O)O)n1cc(-c2ccccn2)nn1", "result": "-0.0828 (inactive)"}
{"smiles_input": "COc1ccc(/C=C/C(=O)c2cccc(OCC(=O)OC(C)(C)C)c2)cc1", "result": "30.9 (active)"}
{"smiles_input": "COCCOC(=O)N1C(=O)[C@@]2(c3cc(C#CCNC(N)=O)ccc31)[C@H](C(=O)NC[C@H](O)c1ccccc1)[C@H]1C(=O)O[C@H](c3ccccc3)[C@H](c3ccccc3)N1[C@@H]2c1ccc(O)cc1", "result": "0.532 (inactive)"}

====

Parameter: composite z-score. Scope: all listed entries.
experiment: small-molecule microarray binders of probe aShh, primary screen, biochemical, biotinylated probe, 635/667 nm fluorescence (AID 1114); conditions: higher = more signal;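 note: probe is biotin-labelled aShh protein from a stem cell growth factor screen; measures binding of labelled protein to compounds printed on the slide; score merges feature fluorescence at 667 nm with signal-to-noise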

{"compound": "C=CCC(OC(C)=O)[C@@H]1[C@@H](N(Cc2ccc(-c3ccccc3)cc2)C(=O)c2ccc(-c3ccccc3)cc2)c2cc(OCCCO)ccc2N1C(=O)c1ccc(-c2ccccc2)cc1 (some centres not stated)", "composite z-score": -0.324}
{"compound": "CC(C)C(CO)N1C(=O)[C@@H]2[C@H]3C(=O)OCC=C[C@H]3OC23C=CCN(Cc2ccccc2)C(=O)[C@@H]13 (some centres not stated)", "composite z-score": 0.0141}
{"compound": "C=C(COC)C(=O)CC[C@@H](OC(=O)c1ccccc1-c1ccccc1C(=O)O)c1cccc(OCCO)c1", "composite z-score": -0.153}
{"compound": "COCCOC(=O)N1C(=O)[C@@]2(c3cc(C#CC4(O)CCCCCC4)ccc31)[C@H](c1ccccc1OCCO)N1[C@H](c3ccccc3)[C@H](c3ccccc3)OC(=O)[C@H]1[C@@H]2C(=O)Nc1nc2ccccc2s1", "composite z-score": 0.275}
{"compound": "C=C(C(=O)CC[C@@H](OC(C)=O)c1ccccc1OCCO)C(C)C", "composite z-score": -0.153}
{"compound": "C=CC[C@@H](OC(=O)Nc1ccc(SC)cc1)c1ccc(OCCO)cc1", "composite z-score": 0.358}
{"compound": "CN(C)CCCC[C@@H]1NC(=O)[C@@H]2C[C@H](C(=O)NCCCCCNC(=O)CS)[C@H](c3cccc(OCCO)c3)N2C1=O", "composite z-score": 0.213}
